molecular target: Thymidylate synthase (Mus musculus, UniProt P07607); assay: In vitro inhibitory activity against thymidylate synthase partially purified from L1210 mouse leukemia cells
Sequence (P07607 whole entry): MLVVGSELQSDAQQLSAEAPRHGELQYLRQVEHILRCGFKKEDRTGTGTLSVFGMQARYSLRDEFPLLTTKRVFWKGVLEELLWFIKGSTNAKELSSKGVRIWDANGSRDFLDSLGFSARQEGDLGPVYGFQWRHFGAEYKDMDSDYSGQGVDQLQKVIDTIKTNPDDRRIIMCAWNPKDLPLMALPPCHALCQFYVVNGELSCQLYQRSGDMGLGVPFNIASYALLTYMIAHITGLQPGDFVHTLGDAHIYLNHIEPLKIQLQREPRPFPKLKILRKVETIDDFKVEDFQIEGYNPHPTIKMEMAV
Documented pIC50 across a set of compounds
Hey, just a heads up that pIC50 is the negative log base 10 of the concentration in molar.

C#CCN(Cc1ccc2nc(CCl)nc(O)c2c1)c1ccc(C(=O)NCc2cccc([N+](=O)[O-])c2)cc1
5.92

pIC50 measured on C#CCN(Cc1ccc2nc(CSc3ncccn3)nc(O)c2c1)c1ccc(C(=O)NCc2cccc([N+](=O)[O-])c2)cc1 = 6.32

pIC50 measured on C#CCN(Cc1cc2c(O)nc(CN3CCN(C)CC3)nc2cc1C)c1ccc(C(=O)NCc2cccc([N+](=O)[O-])c2)c(F)c1 = 6.96

pIC50 measured on C#CCN(Cc1ccc2nc(CC#N)nc(O)c2c1)c1ccc(C(=O)NCc2cccc([N+](=O)[O-])c2)cc1 = 6.42

pIC50 measured on Cc1cc2nc(CO)nc(O)c2cc1CN(C)c1ccc(C(=O)NCc2cccc([N+](=O)[O-])c2)c(F)c1 = 7.10

pIC50 measured on C#CCN(Cc1ccc2nc(CN3CCOCC3)nc(O)c2c1)c1ccc(C(=O)NCc2cccc([N+](=O)[O-])c2)cc1 = 6.42
